Test system: MCF7
assay-comment: Selectivity index, ratio of IC50 for PHA-stimulated human PBMC to IC50 for human MCF7 cells
assay-endpoint: Ratio IC50
Give bare numbers.

molecule	assay-endpoint	val
CCCNCC(O)COc1ccccc1C(=O)CCc1ccccc1Cl.Cl (racemic)	Ratio IC50	2.62
CCCNCC(O)COc1ccccc1C(=O)CCc1ccccc1C.Cl (racemic)	Ratio IC50	2.13
O=C(/C=C/c1ccccc1C(F)(F)F)c1ccccc1O	Ratio IC50	2.07
CCCNCC(O)COc1ccccc1C(=O)CCc1ccccc1F.Cl (racemic)	Ratio IC50	2.6
O=C(/C=C/c1ccccc1F)c1ccccc1O	Ratio IC50	1.14
CCCNCC(O)COc1ccccc1C(=O)CCc1ccccc1C(F)(F)F.Cl (racemic)	Ratio IC50	3.66
CCCNCC(O)COc1ccccc1C(=O)CCc1ccc(F)cc1.Cl (racemic)	Ratio IC50	1.48

# ---- query molecule ----
Supply recorded Ratio IC50 for CCCNCC(O)COc1ccccc1C(=O)CCc1ccc(C)cc1.Cl (racemic) here.
1.31

----------
System: PC-3
assay-comment: Cytotoxicity against human PC3 cells assessed as decrease in cell survival after 72 hrs by MTT assay
Type: functional, cell-based
assay-setup: PC-3, 72 h, read-out: IC50
assay-endpoint: IC50 (µM)
Numbers only, in µM.

# count of solved cases: 5
molecule	IC50 [µM]
O=C(/C=C/c1ccccc1Cl)c1ccccc1O	20.1
O=C(/C=C/c1ccccc1C(F)(F)F)c1ccccc1O	33.5
O=C(/C=C/c1ccc(F)cc1)c1ccccc1O	30.4
CCCNCC(O)COc1ccccc1C(=O)CCc1ccccc1C(F)(F)F.Cl (racemic)	23.3
Cc1ccc(/C=C/C(=O)c2ccccc2O)cc1	27.6

Consider the following items and state reported IC50 for each.
1. CCCNCC(O)COc1ccccc1C(=O)CCc1ccc(F)cc1.Cl (racemic)
2. Cc1ccccc1/C=C/C(=O)c1ccccc1O

[31.9, 19.2]

Hello, I would appreciate it if you could give IC50 for each entry below.
1. O=C(/C=C/c1ccccc1F)c1ccccc1O
2. CCCNCC(O)COc1ccccc1C(=O)CCc1ccccc1F.Cl (racemic)
3. CCCNCC(O)COc1ccccc1C(=O)CCc1ccccc1C.Cl (racemic)
4. CCCNCC(O)COc1ccccc1C(=O)CCc1ccccc1Cl.Cl (racemic)

[21.6, 46.4, 18, 12.6]

Identify measured IC50 corresponding to CCCNCC(O)COc1ccccc1C(=O)CCc1ccc(C)cc1.Cl (racemic)
24.7

----------
For each of the compounds below, state its Ratio IC50.
assay-comment: Selectivity index, ratio of IC50 for PHA-stimulated human PBMC to IC50 for human Fem-X cells
Format: functional
Give bare numbers.

Some entries whose results are on file:
compound	assay-endpoint	val
O=C(/C=C/c1ccccc1C(F)(F)F)c1ccccc1O	Ratio IC50	3.42
CCCNCC(O)COc1ccccc1C(=O)CCc1ccccc1C.Cl (racemic)	Ratio IC50	7.32
CCCNCC(O)COc1ccccc1C(=O)CCc1ccc(C)cc1.Cl (racemic)	Ratio IC50	3.26

I have 5 compounds here; please give me Ratio IC50 for each one.
1. CCCNCC(O)COc1ccccc1C(=O)CCc1ccccc1F.Cl (racemic)
2. O=C(/C=C/c1ccccc1F)c1ccccc1O
3. CCCNCC(O)COc1ccccc1C(=O)CCc1ccc(F)cc1.Cl (racemic)
4. CCCNCC(O)COc1ccccc1C(=O)CCc1ccccc1C(F)(F)F.Cl (racemic)
5. CCCNCC(O)COc1ccccc1C(=O)CCc1ccccc1Cl.Cl (racemic)

1. 1.26
2. 1.88
3. 5.08
4. 2.2
5. 10.8

----------
Test system: HeLa
assay-comment: Selectivity index, ratio of IC50 for PHA-stimulated human PBMC to IC50 for human HeLa cells
Hi there, I'd appreciate the recorded Ratio IC50 for every entry that follows.
Give bare numbers.

Take a look at these entries with their results.
molecule	Ratio IC50
O=C(/C=C/c1ccccc1C(F)(F)F)c1ccccc1O	1.92
O=C(/C=C/c1ccccc1F)c1ccccc1O	1.84
CCCNCC(O)COc1ccccc1C(=O)CCc1ccccc1Cl.Cl (racemic)	17.63
CCCNCC(O)COc1ccccc1C(=O)CCc1ccccc1C.Cl (racemic)	5.6
CCCNCC(O)COc1ccccc1C(=O)CCc1ccccc1F.Cl (racemic)	2.93
CCCNCC(O)COc1ccccc1C(=O)CCc1ccc(C)cc1.Cl (racemic)	1.91
CCCNCC(O)COc1ccccc1C(=O)CCc1ccc(F)cc1.Cl (racemic)	3.03

From here, focus on the item given below.
Specify reported Ratio IC50 for the molecule shown: CCCNCC(O)COc1ccccc1C(=O)CCc1ccccc1C(F)(F)F.Cl (racemic)
5.24

----------
assay-comment: Cytotoxicity against human LS174 cells assessed as decrease in cell survival after 72 hrs by MTT assay
Type: functional, cell-based
assay-setup: LS174, 72 h, read-out: IC50
assay-endpoint: IC50 (µM)
Numbers only, in µM.

molecule	unit-tag	IC50
Cc1ccccc1/C=C/C(=O)c1ccccc1O	µM	48.8
Cc1ccc(/C=C/C(=O)c2ccccc2O)cc1	µM	41.2
CCCNCC(O)COc1ccccc1C(=O)CCc1ccc(C)cc1.Cl (racemic)	µM	20.8
O=C(/C=C/c1ccccc1Cl)c1ccccc1O	µM	32.2
CCCNCC(O)COc1ccccc1C(=O)CCc1ccccc1Cl.Cl (racemic)	µM	11.2

Items follow; give IC50 for each.
1. O=C(/C=C/c1ccccc1F)c1ccccc1O
2. CCCNCC(O)COc1ccccc1C(=O)CCc1ccccc1C.Cl (racemic)
3. CCCNCC(O)COc1ccccc1C(=O)CCc1ccccc1F.Cl (racemic)
4. O=C(/C=C/c1ccc(F)cc1)c1ccccc1O

[17.4, 20.3, 72.2, 35.3]

Dear reader, for each entry below, please note its IC50.
1. CCCNCC(O)COc1ccccc1C(=O)CCc1ccccc1C(F)(F)F.Cl (racemic)
2. CCCNCC(O)COc1ccccc1C(=O)CCc1ccc(F)cc1.Cl (racemic)
3. O=C(/C=C/c1ccccc1C(F)(F)F)c1ccccc1O

[18.6, 23.2, 26.4]

----------
Tested on: PBMC
assay-comment: Cytotoxicity against PHA-stimulated human PBMC assessed as decrease in cell survival after 72 hrs by MTT assay
Format: cell-based
assay-endpoint: pIC50
Numbers only, as −log10 of the molar value.

Reference set (5 entries):
molecule	pIC50
CCCNCC(O)COc1ccccc1C(=O)CCc1ccc(F)cc1.Cl (racemic)	4.31
CCCNCC(O)COc1ccccc1C(=O)CCc1ccccc1Cl.Cl (racemic)	4.28
CCCNCC(O)COc1ccccc1C(=O)CCc1ccccc1C.Cl (racemic)	4.30
CCCNCC(O)COc1ccccc1C(=O)CCc1ccccc1F.Cl (racemic)	4.32
O=C(/C=C/c1ccccc1C(F)(F)F)c1ccccc1O	4.60

Below are 3 molecules. Give each one its pIC50.
1. CCCNCC(O)COc1ccccc1C(=O)CCc1ccc(C)cc1.Cl (racemic)
2. O=C(/C=C/c1ccccc1F)c1ccccc1O
3. CCCNCC(O)COc1ccccc1C(=O)CCc1ccccc1C(F)(F)F.Cl (racemic)

1: 4.38; 2: 4.79; 3: 4.45

----------
Test system: K562
assay-comment: Selectivity index, ratio of IC50 for human PBMC to IC50 for human K562 cells
# note: boundary value 5 maps to Not fulfilled; Ratio IC50 below it maps to Fulfilled

molecule	study-system	class-label
O=C(/C=C/c1ccccc1C(F)(F)F)c1ccccc1O	K562	Fulfilled
CCCNCC(O)COc1ccccc1C(=O)CCc1ccccc1F.Cl (racemic)	K562	Fulfilled
CCCNCC(O)COc1ccccc1C(=O)CCc1ccccc1Cl.Cl (racemic)	K562	Not fulfilled

I'd appreciate it if you could check whether CCCNCC(O)COc1ccccc1C(=O)CCc1ccc(C)cc1.Cl (racemic) has Ratio IC50 smaller than 5.
Fulfilled

Please state whether Ratio IC50 is below 5 for O=C(/C=C/c1ccccc1F)c1ccccc1O
Fulfilled

Hello, is Ratio IC50 of the following molecule strictly smaller than 5? CCCNCC(O)COc1ccccc1C(=O)CCc1ccccc1C.Cl (racemic)
Not fulfilled

Input CCCNCC(O)COc1ccccc1C(=O)CCc1ccc(F)cc1.Cl (racemic) ; condition: Ratio IC50 strictly below 5. Does it hold?
Fulfilled

Data origin, for the record: ChEMBL document CHEMBL2375215
